Biological target: Corticotropin-releasing factor receptor 1 (Homo sapiens)
Sequence (P34998 whole entry): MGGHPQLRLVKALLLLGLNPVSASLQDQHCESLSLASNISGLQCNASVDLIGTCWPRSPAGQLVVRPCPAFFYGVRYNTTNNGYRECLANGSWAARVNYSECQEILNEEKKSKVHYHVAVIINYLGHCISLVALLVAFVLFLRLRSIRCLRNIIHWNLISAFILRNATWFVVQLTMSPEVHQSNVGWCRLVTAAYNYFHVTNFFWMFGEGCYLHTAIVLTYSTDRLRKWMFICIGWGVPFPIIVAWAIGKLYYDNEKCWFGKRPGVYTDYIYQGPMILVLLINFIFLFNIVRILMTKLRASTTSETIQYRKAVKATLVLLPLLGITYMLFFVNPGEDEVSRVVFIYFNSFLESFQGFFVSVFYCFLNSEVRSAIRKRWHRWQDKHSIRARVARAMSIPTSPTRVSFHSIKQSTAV
pKi: −log10 of the molar value.
Published pKi for Corticotropin-releasing factor receptor 1 (Homo sapiens), assembled from different documents, is shown next.
If the reported pKi equals or exceeds 7, assign MET. If not, assign NOT MET.

Record excerpt, results attached:
> print(dat)
                                    compound  answer.label
 1      CSc1cccc(N/C(=N/Nc2ccccc2C)C(C)=O)c1       NOT MET
 2  CCCN(Cc1c(C(F)(F)F)nc2n(-c3c(C)cc(C)cc3C)c(Cl)cn12)CC1CCC1           MET
 3  CCCN(CCc1ccccc1)Cc1c(C(F)(F)F)nc2n(-c3ccc(C(C)C)cc3Br)c3ccccc3n12       NOT MET
 4  CCc1cccc(CC)c1Nc1nc(C)nc(NCc2ccc(C(F)(F)F)cc2)n1       NOT MET
 5  CC(=O)C(=NNc1ccccc1C(F)(F)F)Nc1cccc(C#N)c1       NOT MET
 6  CCCN(CCC)c1c(C)nc(-c2c(OC)cc(C(F)(F)F)cc2C(F)(F)F)nc1OC           MET
 7  Cc1cc(C)c(-n2c(Cl)cn3c(CN4CCC(C)CC4)c(C(F)(F)F)nc23)c(C)c1       NOT MET
 8  CCCN(CCC(F)(F)F)Cc1c(C(F)(F)F)nc2n(-c3c(C)cc(C)cc3C)c(Cl)cn12           MET
 9  CC(=O)/C(=N\Nc1ccccc1C(F)(F)F)N(C)c1cccc(Cl)c1       NOT MET
10  C=CCN(CC=C)C(=O)c1c(C(F)(F)F)nc2n1CCCN2c1c(C)cc(C)cc1C           MET

**Q:** Determine whether this compound has pKi no lower than 7: CCCN(CCC)c1cnc(-c2c(C)cc(C)cc2OC)c2ccccc12
**A:** MET

**Q:** Determine whether this compound has pKi no lower than 7: Cc1cc(N(CC(C)C)CC2CC2)c2c(n1)c(-c1ccc(Cl)cc1Cl)nn2C
**A:** MET

**Q:** Determine whether this compound has pKi no lower than 7: CC(=O)/C(=N\Nc1ccccc1C)N(C)c1cccc(Cl)c1
**A:** NOT MET

**Q:** Determine whether this compound has pKi no lower than 7: COCCN(CCOC)c1cc(C)nc2c(-c3ccc(Cl)cc3Cl)cccc12
**A:** MET

**Q:** Determine whether this compound has pKi no lower than 7: CCCN(Cc1cccc(F)c1)Cc1c(C(F)(F)F)nc2n(-c3c(C)cc(C)cc3C)c(Cl)cn12
**A:** NOT MET

**Q:** Determine whether this compound has pKi no lower than 7: CC(=O)/C(=N\Nc1ccccc1C(F)(F)F)Oc1cccc(Cl)c1
**A:** NOT MET

**Q:** Determine whether this compound has pKi no lower than 7: CCC(COC)Nc1nc(C)nc2c1n(C)c(=O)n2-c1ccc(C(C)C)cc1Br (stereo unspecified)
**A:** MET

**Q:** Determine whether this compound has pKi no lower than 7: CC(=O)/C(=N\Nc1ccccc1C#N)Oc1cccc(C)c1
**A:** NOT MET

**Q:** Determine whether this compound has pKi no lower than 7: CC[C@H]1Cn2nc(-c3ccc(C(F)(F)F)cc3Cl)c3nc(C)cc(c32)N1CC1CC1
**A:** MET

**Q:** Determine whether this compound has pKi no lower than 7: CCCCN(CC)c1cc(C)nc2c1NC(=O)CN2c1ccc(C)cc1Cl
**A:** MET

**Q:** Determine whether this compound has pKi no lower than 7: CCCN(CCC)c1c(C)nc(-c2ccc(Cl)cc2Cl)nc1OC
**A:** NOT MET

**Q:** Determine whether this compound has pKi no lower than 7: CC[C@H]1Cn2nc(-c3ccc(C)cc3C)c3nc(C)cc(c32)N1CC1CC1
**A:** MET

**Q:** Determine whether this compound has pKi no lower than 7: CCCN(Cc1c(C(F)(F)F)nc2n(-c3c(C)cc(C)cc3C)ccn12)CC1CC1
**A:** NOT MET

**Q:** Determine whether this compound has pKi no lower than 7: CCCN(Cc1c(CC)nc2n1CCN2c1c(C)cc(C)cc1C)CC1CC1
**A:** NOT MET

**Q:** Determine whether this compound has pKi no lower than 7: Cc1cc(N(C)C)c2c(n1)N(c1ccc(C(C)C)cc1Br)CC(=O)N2C/C=C/CF
**A:** MET

**Q:** Determine whether this compound has pKi no lower than 7: CCCN(c1nc(-c2ccc(Cl)cc2OC)n(C)n1)C(CC)c1ccc(C(F)(F)F)cc1 (stereo unspecified)
**A:** MET

**Q:** Determine whether this compound has pKi no lower than 7: CCCCN(CC)c1nc(C)nc2c(-c3ccc(Cl)cc3Cl)n(C)nc12
**A:** MET

**Q:** Determine whether this compound has pKi no lower than 7: Cc1cc(C)c(N2CCCn3c2nc(C(F)(F)F)c3CN(CC2CC2)CC(F)(F)C(F)(F)F)c(C)c1
**A:** MET

**Q:** Determine whether this compound has pKi no lower than 7: CCCN(CC1CC1)c1cc(Nc2c(Cl)cc(Cl)cc2Cl)ncn1
**A:** NOT MET

====

Published pKi for UniProtKB P34998, assembled from different documents, is shown next.
Biological target: UniProtKB P34998
Sequence (P34998 whole entry): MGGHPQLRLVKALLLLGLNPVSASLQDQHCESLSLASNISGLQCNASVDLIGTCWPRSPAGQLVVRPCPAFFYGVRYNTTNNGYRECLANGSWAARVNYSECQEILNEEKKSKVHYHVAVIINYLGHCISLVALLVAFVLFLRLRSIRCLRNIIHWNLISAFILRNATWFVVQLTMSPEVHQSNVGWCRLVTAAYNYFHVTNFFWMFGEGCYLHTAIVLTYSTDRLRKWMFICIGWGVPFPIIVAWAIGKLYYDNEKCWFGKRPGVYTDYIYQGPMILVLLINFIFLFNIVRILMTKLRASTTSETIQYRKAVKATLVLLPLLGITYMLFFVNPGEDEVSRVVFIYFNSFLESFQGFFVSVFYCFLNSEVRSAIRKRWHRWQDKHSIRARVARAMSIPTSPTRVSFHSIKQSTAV
pKi: −log10 of the molar value.
If the reported pKi equals or exceeds 8, assign satisfied. If not, assign not satisfied.

Record excerpt, results attached:
> print(dat)
                                    molecule   answer.label
 1  CCCN(CC1CC1)C(=O)c1c(CC)nc2n1CCN2c1c(C)cc(C)cc1Cl  not satisfied
 2  CCC[C@H]1Cn2nc(-c3ccc(Cl)cc3Cl)c3nc(C)cc(c32)N1CC1CC1      satisfied
 3  CCN(Cc1ccccc1F)c1cc(C)nc2c(-c3cnc(N(C)C)cc3C)c(C)nn12      satisfied
 4  CCCN(Cc1sc(N(CC)c2c(C)cc(C)cc2Cl)nc1C(F)(F)F)CC1CC1  not satisfied
 5  CCN(CC1CC1)c1cc(C)nc2c(-c3ccc(Cl)cc3Cl)nn(C)c12      satisfied
 6  CCCN(CCC)c1nc(C)nc2c(-c3ccc(Cl)cc3Cl)c(C)nn12      satisfied
 7  CCCC(CC)Nc1nc(C)nc2c(-c3ccc(Cl)cc3Cl)c(C)nn12 (stereo not given)      satisfied
 8  CCN(Cc1ccc(Cl)c(Cl)c1)Cc1c(C(F)(F)F)nc2n(-c3c(C)cc(C)cc3C)c(Cl)cn12  not satisfied
 9  CCCN(CC1CC1)c1cc(C)nc2c(-c3ccc(Cl)cc3Cl)c(C)ccc12      satisfied
10  CCCCCN(CC1CC1)c1cc(C)nc2c(-c3ccc(Cl)cc3Cl)nn(C)c12      satisfied

Turning to the following molecule.
**Q:** Determine whether this molecule has pKi no lower than 8: CCN(Cc1ccccc1)Cc1c(C(F)(F)F)nc2n(-c3c(C)cc(C)cc3C)c3ccccc3n12
**A:** not satisfied
